- Protocol Text: Half life in po dosed rat
- Type: ADME, organism-based
- Condition Set: in vivo
Readout Name: half-life (h)

>>> df
                         structure_notation  readout_unit  test_result
0  CCCN(CCC)c1c(C)nc(-c2c(OC)cc(C(F)(F)F)cc2C(F)(F)F)c2ccccc12             h          5.4

* * *

Target protein (sequence): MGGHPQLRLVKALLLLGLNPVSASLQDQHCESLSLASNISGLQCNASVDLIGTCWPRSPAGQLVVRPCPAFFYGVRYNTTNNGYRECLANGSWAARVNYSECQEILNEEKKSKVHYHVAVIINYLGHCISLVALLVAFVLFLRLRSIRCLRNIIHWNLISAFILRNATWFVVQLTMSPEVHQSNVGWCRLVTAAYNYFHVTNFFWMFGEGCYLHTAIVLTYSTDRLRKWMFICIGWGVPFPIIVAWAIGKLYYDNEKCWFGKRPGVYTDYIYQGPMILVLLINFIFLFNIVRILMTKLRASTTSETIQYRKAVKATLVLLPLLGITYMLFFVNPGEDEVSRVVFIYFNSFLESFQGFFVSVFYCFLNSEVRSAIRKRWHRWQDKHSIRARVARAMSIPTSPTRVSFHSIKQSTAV
pKi: −log10 of the molar value.
Readout Name: pKi

>>> df
                         structure_notation  comparative_sign  test_result
0  CCCN(CCC)c1c(C)nc(-c2ccc(OC(F)F)cc2OC)c2ccccc12                 =         7.77
1  CCCN(CCC)c1c(C)nc(-c2cccc(Cl)c2)c2ccccc12                 <         5.00
2  CCCN(CCC)c1c(C)nc(-c2c(C)cc(C)cc2OC)c2ccccc12                 =         8.22
3  CCCN(CCC)c1c(C)nc(-c2ccc(Cl)cc2C)c2ccccc12                 =         7.68
4  COc1cc(C)cc(C)c1-c1nc(C)c(NCCN2CCCC2)c2ccccc12                 <         5.00
5  CCCN(CCC)c1c(C)nc(-c2ccc(OC)cc2C)c2ccccc12                 =         7.55

* * *

- Protocol Text: Solubility at pH 5.4
- Assay type: physicochemical
- Condition Set: buffer
Reported solubility values follow for various compounds
Readout Name: solubility (µg/mL)

>>> df
                                    compound  comparative_sign  test_result
 0  CCCN(CCC)c1c(C)nc(-c2c(C)cc(C)cc2OCCN(C)C)c2ccccc12                 =          112
 1  CCCN(CCN1CCCC1)c1c(C)nc(-c2c(C)cc(C)cc2OC)c2ccccc12                 =          120
 2  CCCN(CCn1ccnc1)c1c(C)nc(-c2c(C)cc(C)cc2OC)c2ccccc12                 =          107
 3  CCCN(CCC)c1c(C)nc(-c2c(C)cc(C)cc2OC)c2ccccc12                 <          0.5
 4  COc1cc(C)cc(C)c1-c1nc(C)c(NCCN2CCCC2)c2ccccc12                 =          103
 5  CCCN(CCC)c1c(C)nc(-c2c(OC)cc(C(F)(F)F)cc2C(F)(F)F)c2ccccc12                 <          0.5
 6  CCCN(CCC)c1c(C)nc(-c2c(C)cc(C)cc2OCCN2CCCCC2)c2ccccc12                 =           27
 7  CCCN(CCC)c1c(C)nc(-c2c(C)cc(C)cc2OCCN2CCCC(O)C2)c2ccccc12 (stereo not drawn)                 =          131
 8  COc1cc(C)cc(C)c1-c1nc(C)c(N(CC2CC2)CC2CC2)c2ccccc12                 <          0.5
 9  CCCN(CCC)c1c(C)nc(-c2c(C)cc(C)cc2OCCN2CCCC2)c2ccccc12                 =          105
10  CCCN(CCC)c1c(C)nc(-c2c(C)cc(C)cc2OCCN2CCC(O)CC2)c2ccccc12                 =          125
11  CCCN(CCC)c1c(C)nc(-c2c(C)cc(C)cc2OCCN2CCN(C)CC2)c2ccccc12                 =          135
12  CCCN(CC1CC1)c1c(C)nc(-c2c(C)cc(C)cc2OC)c2ccccc12                 <          0.5

* * *

- Protocol Text: Half life in rat liver microsomes
- Assay type: ADME, Microsome
Readout Name: half-life (min)

In [3]: df
Out[3]:
                         structure_notation  test_result
0  CCCN(CCC)c1c(C)nc(-c2c(OC)cc(C(F)(F)F)cc2C(F)(F)F)c2ccccc12           36
1  CCCN(CCC)c1c(C)nc(-c2c(C)cc(C)cc2OC)c2ccccc12            4

* * *

- Protocol Text: Oral bioavailability of rat at 20 mg/kg
- Type: ADME, organism-based
- Condition Set: in vivo
Readout Name: bioavailability

>>> df
                         structure_notation     readout_name  test_result
0  CCCN(CCC)c1c(C)nc(-c2c(OC)cc(C(F)(F)F)cc2C(F)(F)F)c2ccccc12  bioavailability         4.8%

* * *

Target sequence: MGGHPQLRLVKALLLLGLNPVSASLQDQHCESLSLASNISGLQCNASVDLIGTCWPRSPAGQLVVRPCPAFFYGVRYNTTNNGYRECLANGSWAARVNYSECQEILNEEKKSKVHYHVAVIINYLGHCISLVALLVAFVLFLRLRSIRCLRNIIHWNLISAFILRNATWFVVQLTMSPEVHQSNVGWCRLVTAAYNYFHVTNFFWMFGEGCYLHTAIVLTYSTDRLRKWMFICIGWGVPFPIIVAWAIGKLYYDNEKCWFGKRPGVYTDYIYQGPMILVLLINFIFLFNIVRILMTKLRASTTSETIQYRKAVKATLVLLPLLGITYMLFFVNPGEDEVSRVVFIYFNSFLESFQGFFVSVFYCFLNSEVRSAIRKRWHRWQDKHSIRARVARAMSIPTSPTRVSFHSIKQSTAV
Reported Ki values follow for various compounds
Readout Name: Ki

                                   compound  test_result
0  CCCN(CCC)c1c(C)nc(-c2ccc(Cl)cc2Cl)c2ccccc12       103 nM
1  CCCN(CCC)c1c(C)nc(-c2ccc(OC)cc2OC)c2ccccc12        42 nM
2  CCCN(CCC)c1c(C)nc(-c2c(C)cc(C)cc2OCCN2CCCCC2)c2ccccc12       120 nM
3  CCCN(CCC)c1c(C)nc(-c2c(C)cc(C)cc2OCCN2CCCC(O)C2)c2ccccc12 (stereo not drawn)        32 nM
4  CCCN(CCC)c1c(C)nc(-c2c(C)cc(OC)cc2C)c2ccccc12        26 nM
5  CCCN(CCC)c1c(C)nc(-c2c(OC)cc(C(F)(F)F)cc2C(F)(F)F)c2ccccc12         8 nM
6  CCCN(CCN1CCCC1)c1c(C)nc(-c2c(C)cc(C)cc2OC)c2ccccc12       215 nM
7  CCCNc1c(C)nc(-c2c(C)cc(C)cc2OC)c2ccccc12       165 nM
